Experiment: in vivo
Details: male, NodCB17 SCID, mouse, liver, iv, 0.061 nmol, total radioactivity

molecule	tissue uptake at 0.25 h, %ID/g
CC(C)C[C@H](NC(=O)C[C@H](O)[C@H](CC(C)C)NC(=O)[C@H](Cc1c[nH]cn1)NC(=O)CNC(=O)[C@@H](NC(=O)[C@H](C)NC(=O)[C@H](Cc1c[nH]c2ccccc12)NC(=O)[C@H](CCC(N)=O)NC(=O)[C@@H](Cc1ccccc1)NC(=O)CCOCCOCCOCCOCCNC(=O)OC1CCCC2=CNN=C(c3ccc(CNC(=O)CN4CCN(CC(=O)O)CCN(CC(=O)O)CCN(CC(=O)O)CC4)cc3)C2CC1)C(C)C)C(N)=O (stereo partly shown) [[90Y]Y-DOTA-Tz-TCO-PEG4-AR, metal not drawn]	7.35
